Source listed as ChEMBL document CHEMBL3045946.

Measured inhibition zone (IZ) values are reported for all entries that follow.
# Tested on: Bacillus cereus
# assayNotes: Antibacterial activity against Bacillus cereus 702 Roma after 18 hr by agar well diffusion method; also: test concentration or dose not given here
# Type: functional
Express your answer in mm, writing the number without its unit.

>  <molecule>
O=C(Cn1nc(Cc2ccc(Cl)cc2)n(CCc2c[nH]c3ccccc23)c1=O)NNS(=O)(=O)c1ccc(Br)cc1

>  <assayTarget>
Bacillus cereus

>  <readout>
inhibition zone (IZ)

>  <recordedResult>
12

$$$$
>  <molecule>
O=C(Cn1nc(Cc2ccc(Cl)cc2)n(CCc2c[nH]c3ccccc23)c1=O)N/N=c1\occ(-c2ccc(Cl)cc2)n1Cc1ccccc1

>  <assayTarget>
Bacillus cereus

>  <readout>
inhibition zone (IZ)

>  <recordedResult>
6

$$$$
>  <molecule>
Nn1c(S)nnc1Cn1nc(Cc2ccc(Cl)cc2)n(CCc2c[nH]c3ccccc23)c1=O

>  <assayTarget>
Bacillus cereus

>  <readout>
inhibition zone (IZ)

>  <recordedResult>
7

$$$$

We now examine a further compound.
The compound listed as `Cc1ccc(Cc2nn(CC(=O)NNS(=O)(=O)c3ccc(Cl)cc3)c(=O)n2CCc2c[nH]c3ccccc23)cc1` shows inhibition zone (IZ) equal to 10

* * *

# System: Candida tropicalis
# assayNotes: Antifungal activity against Candida tropicalis after 18 hr by agar well diffusion method
# Assay type: functional, organism-based
Active and inactive are the calls of the source. No cut-off for these calls is given here.
readout: Activity

>  <molecule>
Cc1ccc(Cc2nn(CC(=O)N/N=c3\scc(-c4ccc(Cl)cc4)n3-c3ccccc3)c(=O)n2CCc2c[nH]c3ccccc23)cc1

>  <recordedResult>
inactive

$$$$
>  <molecule>
O=C(Cn1nc(Cc2ccc(Cl)cc2)n(CCc2c[nH]c3ccccc23)c1=O)N/N=C/Cc1ccccc1

>  <recordedResult>
inactive

$$$$
>  <molecule>
COc1ccc(/C=N/n2c(S)nnc2Cn2nc(Cc3ccc(C)cc3)n(CCc3c[nH]c4ccccc34)c2=O)cc1

>  <recordedResult>
inactive

$$$$
>  <molecule>
Cc1ccc(Cc2nn(CC(=O)NNS(=O)(=O)c3ccc(Cl)cc3)c(=O)n2CCc2c[nH]c3ccccc23)cc1

>  <recordedResult>
inactive

$$$$
>  <molecule>
O=C(Cn1nc(Cc2ccc(Cl)cc2)n(CCc2c[nH]c3ccccc23)c1=O)NNS(=O)(=O)c1ccc(Br)cc1

>  <recordedResult>
inactive

$$$$
>  <molecule>
Cc1ccc(Cc2nn(CC(=O)NNS(=O)(=O)c3ccc(Br)cc3)c(=O)n2CCc2c[nH]c3ccccc23)cc1

>  <recordedResult>
inactive

$$$$

The compound listed as `O=c1[nH]nc(Cn2nc(Cc3ccc(Cl)cc3)n(CCc3c[nH]c4ccccc34)c2=O)n1Cc1ccccc1` shows Activity equal to inactive

The compound listed as `O=C(Cn1nc(Cc2ccc(Cl)cc2)n(CCc2c[nH]c3ccccc23)c1=O)N/N=c1\occ(-c2ccc(Cl)cc2)n1Cc1ccccc1` shows Activity equal to inactive

The compound listed as `Cc1ccc(Cc2nn(CC(=O)N/N=C/c3ccccn3)c(=O)n2CCc2c[nH]c3ccccc23)cc1` shows Activity equal to inactive

* * *

# System: Bacillus cereus
# assayNotes: Antibacterial activity against Bacillus cereus 702 Roma after 18 hr by agar well diffusion method; also: test concentration or dose not given here
# Format: functional
readout: inhibition zone (IZ) (mm)
Express your answer in mm, writing the number without its unit.

Some solved entries appear below for comparison.
>  <molecule>
Cc1ccc(Cc2nn(Cc3n[nH]c(=O)n3Cc3ccccc3)c(=O)n2CCc2c[nH]c3ccccc23)cc1

>  <inhibition zone (IZ), mm>
7

$$$$
>  <molecule>
COc1ccc(/C=N/n2c(S)nnc2Cn2nc(Cc3ccc(C)cc3)n(CCc3c[nH]c4ccccc34)c2=O)cc1

>  <inhibition zone (IZ), mm>
12

$$$$
>  <molecule>
O=C(Cn1nc(Cc2ccc(Cl)cc2)n(CCc2c[nH]c3ccccc23)c1=O)NNS(=O)(=O)c1ccc(Cl)cc1

>  <inhibition zone (IZ), mm>
12

$$$$
>  <molecule>
Cc1ccc(Cc2nn(CC(=O)NNS(=O)(=O)c3ccc(Br)cc3)c(=O)n2CCc2c[nH]c3ccccc23)cc1

>  <inhibition zone (IZ), mm>
8

$$$$
>  <molecule>
Cc1ccc(Cc2nn(Cc3nnc(S)n3N)c(=O)n2CCc2c[nH]c3ccccc23)cc1

>  <inhibition zone (IZ), mm>
7

$$$$
>  <molecule>
O=c1n(Cc2nnc(S)o2)nc(Cc2ccc(Cl)cc2)n1CCc1c[nH]c2ccccc12

>  <inhibition zone (IZ), mm>
6

$$$$
>  <molecule>
O=c1[nH]nc(Cn2nc(Cc3ccc(Cl)cc3)n(CCc3c[nH]c4ccccc34)c2=O)n1Cc1ccccc1

>  <inhibition zone (IZ), mm>
12

$$$$

We now examine a further compound.
The compound listed as `Cc1ccc(Cc2nn(Cc3nnc(S)o3)c(=O)n2CCc2c[nH]c3ccccc23)cc1` shows inhibition zone (IZ) equal to 8

* * *

# Test system: Candida tropicalis
# assayNotes: Antifungal activity against Candida tropicalis after 18 hr by agar well diffusion method
# Format: functional, organism-based
Calls of active or inactive are those of the source. The rule behind the calls is not given here.
readout: Activity

Some solved entries appear below for comparison.
>  <molecule>
O=C(Cn1nc(Cc2ccc(Cl)cc2)n(CCc2c[nH]c3ccccc23)c1=O)NNS(=O)(=O)c1ccc(Cl)cc1

>  <assayTarget>
Candida tropicalis

>  <Activity>
inactive

$$$$
>  <molecule>
COc1ccc(/C=N/NC(=O)Cn2nc(Cc3ccc(Cl)cc3)n(CCc3c[nH]c4ccccc34)c2=O)cc1

>  <assayTarget>
Candida tropicalis

>  <Activity>
inactive

$$$$
>  <molecule>
Cc1ccc(Cc2nn(CC(=O)N/N=C/c3ccc[nH]3)c(=O)n2CCc2c[nH]c3ccccc23)cc1

>  <assayTarget>
Candida tropicalis

>  <Activity>
inactive

$$$$
>  <molecule>
O=C(Cn1nc(Cc2ccc(Cl)cc2)n(CCc2c[nH]c3ccccc23)c1=O)N/N=C/c1ccc[nH]1

>  <assayTarget>
Candida tropicalis

>  <Activity>
inactive

$$$$
>  <molecule>
O=c1n(Cc2nnc(S)o2)nc(Cc2ccc(Cl)cc2)n1CCc1c[nH]c2ccccc12

>  <assayTarget>
Candida tropicalis

>  <Activity>
inactive

$$$$

The molecule listed as `Cc1ccc(Cc2nn(CC(=O)NNC(=S)Nc3ccccc3)c(=O)n2CCc2c[nH]c3ccccc23)cc1` shows Activity equal to inactive

The molecule listed as `Cc1ccc(Cc2nn(Cc3nnc(S)n3N)c(=O)n2CCc2c[nH]c3ccccc23)cc1` shows Activity equal to inactive

The molecule listed as `Cc1ccc(Cc2nn(Cc3nnc(S)o3)c(=O)n2CCc2c[nH]c3ccccc23)cc1` shows Activity equal to inactive
